# measurement target: Beta-secretase 2 (Homo sapiens, UniProt Q9Y5Z0)
# Sequence (Q9Y5Z0 whole entry): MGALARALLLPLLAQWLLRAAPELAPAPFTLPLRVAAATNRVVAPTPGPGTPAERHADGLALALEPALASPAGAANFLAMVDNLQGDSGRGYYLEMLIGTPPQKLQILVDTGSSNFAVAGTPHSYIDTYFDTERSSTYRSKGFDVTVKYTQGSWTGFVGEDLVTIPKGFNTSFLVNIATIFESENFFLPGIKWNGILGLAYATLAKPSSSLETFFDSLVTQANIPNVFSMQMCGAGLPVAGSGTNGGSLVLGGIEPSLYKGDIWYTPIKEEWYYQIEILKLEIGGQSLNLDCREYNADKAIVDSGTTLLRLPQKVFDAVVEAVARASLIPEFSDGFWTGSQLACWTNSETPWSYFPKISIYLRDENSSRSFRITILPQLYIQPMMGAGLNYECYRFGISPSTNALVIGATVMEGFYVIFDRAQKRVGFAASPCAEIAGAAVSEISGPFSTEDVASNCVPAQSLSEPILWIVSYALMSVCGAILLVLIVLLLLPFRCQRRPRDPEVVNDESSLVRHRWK
pIC50: −log10 of the molar value.
measurement type: pIC50

compound	numeric readout
NC1=NC(c2ccccc2)(C2CCCCC2)C(=O)N1Cc1cc(F)cc(F)c1 (centres undefined)	6.39
CCCCCCN1C(=O)C(c2ccccc2)(C2CCCCC2)N=C1N (centres undefined)	6.57
NC1=NC(c2ccccc2)(C2CCCCC2)C(=O)N1C[C@H]1CC[C@H](C(=O)O)CC1 (some centres undefined)	6.92
CN1C(=O)C(c2ccccc2)(C2CCCCC2)N=C1N (centres undefined)	6.29
CN1C(=O)C(c2cccc(NC(=O)c3ccco3)c2)(C2CCCCC2)N=C1N (centres undefined)	7.70
Cc1ccoc1C(=O)Nc1cccc(C2(C3CCCCC3)N=C(N)N(C)C2=O)c1 (centres undefined)	7.52
CN1C(=O)C(c2ccccc2)(c2ccccc2)N=C1N	6.11
CN1C(=O)C(C2CCCCC2)(C2CCCCC2)N=C1N	6.29
CN1C(=O)C(c2cccc(NC(=O)c3ccc4c(c3)OCO4)c2)(C2CCCCC2)N=C1N (centres undefined)	5.94

----------
# assay comment: Membrane permeability by PAMPA-BBB assay
# Type: ADME
# test context: read-out: permeability
If the reported Papp equals or exceeds 10 ×10⁻⁶ cm/s, assign MET. If not, assign NOT MET.

compound	label value
Cc1ccoc1C(=O)Nc1cccc(C2(C3CCCCC3)N=C(N)N(C)C2=O)c1 (stereo not given)	MET
CN1C(=O)C(C2CCCCC2)(C2CCCCC2)N=C1N	NOT MET
NC1=NC(c2ccccc2)(c2ccccc2)C2=NCCCN12	NOT MET
CN1C(=O)C(c2ccccc2)(c2ccccc2)N=C1N	MET
CN1C(=O)C(c2ccccc2)(C2CCCCC2)N=C1N (stereo not given)	MET

----------
# assay comment: Solubility at pH 7.4
# Format: physicochemical
# test context: buffer

molecule	solubility
CN1C(=O)C(C2CCCCC2)(C2CCCCC2)N=C1N	> 100 µg/mL
CN1C(=O)C(c2ccccc2)(c2ccccc2)N=C1N	> 100 µg/mL
CN1C(=O)C(c2ccccc2)(C2CCCCC2)N=C1N (stereo not drawn)	> 100 µg/mL
